Experiment: Clearance in male C57BL/6 mouse at 1 mg/kg, iv measured after 24 hrs by LC-MS/MS analysis
Format: ADME, organism-based
Settings: in vivo
quantity kind: clearance (mL/min/kg)
Quick note: give the figure in mL/min/kg, leave out the unit.

Input line: GET /values?readout=clearance&item= Cn1ccc(-c2cc(Cl)c(Cl)c3[nH]c4c(c23)CN(C(=O)CNC(=O)CCCC#Cc2cccc3c2CN(C2CCC(=O)NC2=O)C3=O)CC4)n1 (stereo unspecified)
Output line: 31.7

----------
Measured pIC50 values are reported for all entries that follow.
Assay: Inhibition of dsDNA-induced cGAS signaling pathway in mouse RAW-Lucia ISG cells preincubated with compound for 24 hrs followed by HT-DNA addition and measured after 24 hrs by QUANTI-Luc luciferase reagent based assay
Assay type: cell-based
pIC50: −log10 of the molar value.

{"compound": "Nc1cccc2c1CN(C1CCC(=O)NC1=O)C2=O (stereo not given) [LENALIDOMIDE]", "pIC50": "< 4.30"}

Input line: Look up pIC50: Cn1ccc(-c2cc(Cl)c(Cl)c3[nH]c4c(c23)CN(C(=O)CNC(=O)CCCC#Cc2cccc3c2C(=O)N(C2CCC(=O)NC2=O)C3=O)CC4)n1 (stereo not given)
Output line: 4.51

Input line: Query (compound): Cn1ccc(-c2cc(Cl)c(Cl)c3[nH]c4c(c23)CN(C(=O)CNC(=O)CCOCCOCCOCCOCCNc2cccc3c2C(=O)N(C2CCC(=O)NC2=O)C3=O)CC4)n1 (stereo not given) ; field requested: pIC50
Output line: < 4.30

Input line: Field request: pIC50 | item: Cn1ccc(-c2cc(Cl)c(Cl)c3[nH]c4c(c23)CN(C(=O)CNC(=O)CN2CCN(C(=O)COc3cccc5c3C(=O)N(C3CCC(=O)NC3=O)C5=O)CC2)CC4)n1 (stereo not given)
Output line: < 4.30

Input line: I'd like to know its pIC50. The compound in question is Cn1ccc(-c2cc(Cl)c(Cl)c3[nH]c4c(c23)CN(C(=O)CNC(=O)CCNc2cccc3c2C(=O)N(C2CCC(=O)NC2=O)C3=O)CC4)n1 (stereo not given)
Output line: < 4.30

Input line: Name the recorded pIC50 for Cn1ccc(-c2cc(Cl)c(Cl)c3[nH]c4c(c23)CN(C(=O)CNC(=O)CCCCCCCCNc2cccc3c2C(=O)N(C2CCC(=O)NC2=O)C3=O)CC4)n1 (stereo not given) .
Output line: < 4.30

Input line: Please look up its pIC50: Cn1ccc(-c2cc(Cl)c(Cl)c3[nH]c4c(c23)CN(C(=O)CNC(=O)CCCCCNc2cccc3c2C(=O)N(C2CCC(=O)NC2=O)C3=O)CC4)n1 (stereo not given)
Output line: 4.57

Input line: I have this compound here, O=C1CCC(N2C(=O)c3cccc(NCCCCCC(=O)N4CC(Cn5cc(-c6cc(Cl)c(Cl)c7[nH]c8c(c67)CN(C(=O)CO)CC8)cn5)C4)c3C2=O)C(=O)N1 (stereo not given) , and I need its recorded pIC50.
Output line: < 4.30

Input line: Would you kindly share the measured pIC50 for Cn1ccc(-c2cc(Cl)c(Cl)c3[nH]c4c(c23)CN(C(=O)CNC(=O)CCCNc2cccc3c2C(=O)N(C2CCC(=O)NC2=O)C3=O)CC4)n1 (stereo not given) ?
Output line: 4.59

Input line: Give its pIC50 value. Item: O=C1CCC(N2C(=O)c3cccc(NCCCCCCC(=O)N4CCC(Cn5cc(-c6cc(Cl)c(Cl)c7[nH]c8c(c67)CN(C(=O)CO)CC8)cn5)CC4)c3C2=O)C(=O)N1 (stereo not given)
Output line: < 4.30

Hello, the source for this data is ChEMBL document CHEMBL6103619, in case you need it.
